Reported pIC50 values, human FGFR-3 (Homo sapiens (Human)).
Would you please state pIC50, meaning minus log10 of the concentration in mol/L, as a bare number?

COc1cc(C)cc2cc(-c3cc(COC[C@H](C)N)n4ncnc(N)c34)sc12 [Example 111]: 7.07
COc1cc(C)cc2cc(-c3cc(CNC4CCS(=O)(=O)C4)n4ncnc(N)c34)sc12 (stereo not shown) [Example 78]: 7.02
COc1cc(C)cc2cc(-c3cc(CN4CCC(OC)CC4)n4ncnc(N)c34)sc12 [Example 82]: 7.14

Attention now turns to another entry.
Query: Find the recorded pIC50 belonging to COc1cc(C)cc2cc(-c3cc(CN4CC(N5CCCC5)C4)n4ncnc(N)c34)sc12 [Example 71] and report it.
Reply: 7.10

The measured values listed here are drawn from patent US9475815B2.
